# credit: the supplement of paper PMC6555819

List of PBM binding z-score values.
Tested on: LXRb homodimer (NR concentration 270 nM)
Assay: PBM binding z-score (relative to random genomic background probes); higher = stronger binding; sequences stand for … in GC…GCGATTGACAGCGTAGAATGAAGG
Number only, no unit.

Some entries whose results are on file:
Sequence: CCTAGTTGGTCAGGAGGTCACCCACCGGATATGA
PBM binding z-score: 0.503
//
Sequence: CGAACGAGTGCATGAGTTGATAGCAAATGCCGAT
PBM binding z-score: -0.861
//
Sequence: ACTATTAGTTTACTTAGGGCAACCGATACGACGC
PBM binding z-score: 0.375
//
Sequence: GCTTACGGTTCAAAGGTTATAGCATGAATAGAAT
PBM binding z-score: -0.0859
//
Sequence: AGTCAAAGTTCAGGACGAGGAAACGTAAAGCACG
PBM binding z-score: 0.307

Consider the additional sequence presented here.
Ask | Request the reported PBM binding z-score associated with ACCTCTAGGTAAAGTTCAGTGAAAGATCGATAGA
Reply | 0.102

---

System: PPARg DBDmut IVT, anti-PPARg (DBD mutation: PPARg1 K132A/R137A, NR concentration 270 nM)
Assay: PBM binding z-score (relative to random genomic background probes); higher = stronger binding; sequences stand for … in GC…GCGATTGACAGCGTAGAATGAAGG
Output Y for PBM binding z-score not less than -0.5; output N otherwise.

Sequence: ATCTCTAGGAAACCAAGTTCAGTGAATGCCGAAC
Assigned Label: Y
//
Sequence: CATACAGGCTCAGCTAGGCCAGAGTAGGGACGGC
Assigned Label: Y
//
Sequence: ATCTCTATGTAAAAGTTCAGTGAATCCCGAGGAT
Assigned Label: Y
//
Sequence: TCTATTAGTTGCTTAGGGCAACCGAAACAGCGGA
Assigned Label: Y
//
Sequence: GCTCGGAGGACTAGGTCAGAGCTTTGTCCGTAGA
Assigned Label: N

Ask | Can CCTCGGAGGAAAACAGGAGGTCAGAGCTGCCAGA be said to have PBM binding z-score at or above -0.5?
Reply | N

Ask | Can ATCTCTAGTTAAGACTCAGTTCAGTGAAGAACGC be said to have PBM binding z-score at or above -0.5?
Reply | Y

Ask | Can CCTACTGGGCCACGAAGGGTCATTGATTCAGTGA be said to have PBM binding z-score at or above -0.5?
Reply | N

Ask | Can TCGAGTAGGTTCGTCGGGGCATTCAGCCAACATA be said to have PBM binding z-score at or above -0.5?
Reply | N

Ask | Can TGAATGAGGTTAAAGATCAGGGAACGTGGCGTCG be said to have PBM binding z-score at or above -0.5?
Reply | Y

Ask | Can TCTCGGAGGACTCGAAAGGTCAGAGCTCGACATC be said to have PBM binding z-score at or above -0.5?
Reply | Y

---

List of PBM binding z-score values.
System: FXR:RXRa (NR concentration 270 nM, RXRa partner concentration 90 nM)
Assay: PBM binding z-score (relative to random genomic background probes); higher = stronger binding; sequences stand for … in GC…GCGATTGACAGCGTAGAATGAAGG
Number only, no unit.

Some entries whose results are on file:
Sequence: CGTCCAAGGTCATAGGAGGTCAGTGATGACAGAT
Result: 7.57
--
Sequence: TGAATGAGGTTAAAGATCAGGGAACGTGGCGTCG
Result: 3.08
--
Sequence: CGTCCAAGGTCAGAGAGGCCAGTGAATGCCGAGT
Result: 4.34
--
Sequence: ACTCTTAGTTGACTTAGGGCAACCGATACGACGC
Result: 0.556
--
Sequence: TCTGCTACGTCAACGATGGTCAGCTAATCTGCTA
Result: -0.231

Ask | Request the reported PBM binding z-score associated with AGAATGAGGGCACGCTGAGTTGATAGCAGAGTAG
Reply | 1.27

Ask | Request the reported PBM binding z-score associated with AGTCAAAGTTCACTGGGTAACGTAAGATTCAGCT
Reply | 5.3

Ask | Request the reported PBM binding z-score associated with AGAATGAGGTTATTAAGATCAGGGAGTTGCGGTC
Reply | 1.77

Ask | Request the reported PBM binding z-score associated with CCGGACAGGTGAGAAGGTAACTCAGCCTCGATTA
Reply | -0.332

Ask | Request the reported PBM binding z-score associated with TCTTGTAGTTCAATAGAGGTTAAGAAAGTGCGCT
Reply | 2.33

Ask | Request the reported PBM binding z-score associated with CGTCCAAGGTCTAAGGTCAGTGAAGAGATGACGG
Reply | 2.27

Ask | Request the reported PBM binding z-score associated with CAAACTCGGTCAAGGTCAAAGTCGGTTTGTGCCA
Reply | 5.73
